Sourced from patent US20070293656A1

For each entry below, report its % bound value.
- tested-on: T1, human collagen type I (acid soluble, extracted from placenta, Sigma C7774) (human, UniProt P02452 162-1218; P08123 80-1119)
- T1 construct: gelled and dried as a fibril film in the assay; also called dried human collagen; h-Collagen
- experimental-details: dried collagen assay
Bridge positions count the residues as written; N and C are the ends. Ends that are not written are not given here.
Could you give me the number in %? Just the number is fine.

Query: Which value of % bound has been reported for KWFCELMQDQWQCGSK (disulfide 4-13 (inferred)) [SEQ ID NO: 50] in the records?
Result: 18

Query: Which value of % bound has been reported for GWFCKLVDGNWECSTK (disulfide 4-13 (inferred)) [SEQ ID NO: 53] in the records?
Result: 12

Query: Which value of % bound has been reported for MWDCTGNSAEWRCEMQ (disulfide 4-13 (inferred)) [SEQ ID NO: 34] in the records?
Result: 11

Query: Which value of % bound has been reported for KWHCELDSHMEWSCSGH (disulfide 4-14 (inferred)) [SEQ ID NO: 89] in the records?
Result: 1

Query: Which value of % bound has been reported for FGACDIFPTFHTCPGV (disulfide 4-13 (inferred)) [SEQ ID NO: 76] in the records?
Result: 1

Query: Which value of % bound has been reported for GWVCGGDHTTWECHLQ (disulfide 4-13 (inferred)) [SEQ ID NO: 31] in the records?
Result: 15
